# credit: patent US20260138988A1

- TARGET_UNDER_TEST: SARS-CoV-2 3CL-protease (Severe acute respiratory syndrome coronavirus 2)
- ASSAY_INFO: SARS-CoV-2 3C-Like (3CL) Protease Fluorescence Assay (FRET)
- Format: biochemical
- CONDITION_SET: IC50, SARS-CoV-2 3CL-protease 10 nM, test compounds 0-10 μM, duplicate
ENDPOINT_NAME: IC50

INSERT INTO results (molecule, endpoint_name, recorded_measurement) VALUES
  ('CC(C)C[C@@H](C(=O)N1C[C@]2(C[C@H]1C#N)C(=O)Nc1ccccc12)N(C)C(=O)[C@H](C)NC(=O)C(F)(F)C(F)(F)C(F)(F)C(F)(F)F', 'IC50', '< 100 nM'),
  ('C[C@H](NC(=O)C(F)(F)C(F)(F)C(F)(F)F)C(=O)N(C)[C@@H](CC1CC1)C(=O)N1C[C@]2(C[C@H]1C#N)C(=O)Nc1ccccc12', 'IC50', '< 100 nM'),
  ('C[C@H](NC(=O)C(F)(F)C(F)(F)F)C(=O)N(C)[C@@H](CC(C)(C)C)C(=O)N1C[C@]2(C[C@H]1C#N)C(=O)Nc1ccccc12', 'IC50', '< 100 nM');

Can you look up the measured IC50 of CC(C)(C)C(NC(=O)OCc1ccccc1)C(=O)N1CCC[C@H]1C(=O)N1C[C@]2(C[C@H]1C#N)C(=O)Nc1ccccc12 (stereo partly shown) for me? 100 to 1000 nM

---

// reported pEC50 per item
- Test system: 229E human corona virus (hCoV)
- ASSAY_INFO: 229E live virus assay (MRC-5 cells, CPE, ATPlite readout)
- Type: cell-based, hCoV-229E
- CONDITION_SET: Human coronavirus 229E, MRC5, 144 h; hCoV-229E in MRC-5 cells, MOI 0.05, 6 days at 34° C., ATPlite, run in duplicate; read-out: 229E EC50
pEC50: −log10 of the molar value.

INSERT INTO assay_data (smiles, target_under_test, recorded_measurement) VALUES
  ('CC(C)C[C@@H](C(=O)N1C[C@]2(C[C@H]1C#N)C(=O)Nc1ccccc12)N(C)C(=O)[C@@H]1CC[C@@H](c2ccccc2)N1C(C)C', '229E human corona virus (hCoV)', '> 7.00'),
  ('CC(C)C[C@H]1C(=O)N2C[C@]3(C[C@H]2C#N)C(=O)Nc2ccc(cc23)CCCCC[C@H](NC(=O)OC(C)(C)C)C(=O)N1C', '229E human corona virus (hCoV)', '6.00 to 7.00'),
  ('C[C@H](NC(=O)c1ccc(OC(F)(F)F)cc1)C(=O)N(C)[C@@H](CC(C)(C)C)C(=O)N1C[C@]2(C[C@H]1C#N)C(=O)Nc1ccccc12', '229E human corona virus (hCoV)', '> 7.00'),
  ('Cc1cccc(C)c1C(=O)N[C@@H](C)C(=O)N(C)[C@@H](CC(C)C)C(=O)N1C[C@]2(C[C@H]1C#N)C(=O)Nc1ccccc12', '229E human corona virus (hCoV)', '> 7.00'),
  ('C[C@@H](C(=O)N(C)[C@@H](CC(C)(C)C)C(=O)N1C[C@]2(C[C@H]1C#N)C(=O)Nc1ccccc12)N1CCCC1=O', '229E human corona virus (hCoV)', '6.00 to 7.00');

Can you look up the measured pEC50 of CC(C)C[C@@H](C(=O)N1C[C@]2(C[C@H]1C#N)C(=O)Nc1ccccc12)N(C)C(=O)[C@H](C)NC(=O)c1ccc(-c2ccc(F)cc2)cc1F for me? > 7.00

Can you look up the measured pEC50 of C[C@H](NC(=O)c1ccc(F)cc1F)C(=O)N(C)[C@@H](CC(C)(C)C)C(=O)N1C[C@]2(C[C@H]1C#N)C(=O)Nc1ccccc12 for me? > 7.00
